target: Short transient receptor potential channel 6 (Mus musculus); test: TRPC6 inhibitor potency, dose response, cell-based, mouse TRPC6, HEK293, membrane potential (AID 2696); conditions: TRPC6-expressing HEK293 cells, membrane potential dye fluorescence, acetylcholine-stimulated
Result type: pIC50
# pIC50: negative log10 of molar concentration; output just the value

CCCCNC(=O)c1cc2c(=O)n3cccc(C)c3nc2n(Cc2ccncc2)c1=N | 4.35

Which pIC50 is reported for this compound? O=C(CSc1c2c(nc3ccc(Cl)cc13)CCCC2)NCCCN1CCOCC1
4.40

And then COc1cc(/C=N/Nc2nncc3ccccc23)cc(OC)c1OC , what is it?
4.35

And then Cc1ccc(C)c(NC(=O)C(NCC(C)(C)N2CCOCC2)c2ccccc2)c1 (stereo not given) , what is it?
4.60

And then CCCC(CCC)C(=O)OC[N+](C)(C)CCOC(=O)C(O)(c1ccccc1)C1CCCC1 (stereo not given) , what is it?
5.75

###

IC50: recorded values
target: Short transient receptor potential channel 6 (Mus musculus) (UniProt Q61143); assay: TRPC6 inhibitor potency, dose response, cell-based, mouse TRPC6, HEK293, membrane potential (AID 2696); conditions: TRPC6-expressing HEK293 cells, membrane potential dye fluorescence, acetylcholine-stimulated
Sequence (Q61143 whole entry, looked up): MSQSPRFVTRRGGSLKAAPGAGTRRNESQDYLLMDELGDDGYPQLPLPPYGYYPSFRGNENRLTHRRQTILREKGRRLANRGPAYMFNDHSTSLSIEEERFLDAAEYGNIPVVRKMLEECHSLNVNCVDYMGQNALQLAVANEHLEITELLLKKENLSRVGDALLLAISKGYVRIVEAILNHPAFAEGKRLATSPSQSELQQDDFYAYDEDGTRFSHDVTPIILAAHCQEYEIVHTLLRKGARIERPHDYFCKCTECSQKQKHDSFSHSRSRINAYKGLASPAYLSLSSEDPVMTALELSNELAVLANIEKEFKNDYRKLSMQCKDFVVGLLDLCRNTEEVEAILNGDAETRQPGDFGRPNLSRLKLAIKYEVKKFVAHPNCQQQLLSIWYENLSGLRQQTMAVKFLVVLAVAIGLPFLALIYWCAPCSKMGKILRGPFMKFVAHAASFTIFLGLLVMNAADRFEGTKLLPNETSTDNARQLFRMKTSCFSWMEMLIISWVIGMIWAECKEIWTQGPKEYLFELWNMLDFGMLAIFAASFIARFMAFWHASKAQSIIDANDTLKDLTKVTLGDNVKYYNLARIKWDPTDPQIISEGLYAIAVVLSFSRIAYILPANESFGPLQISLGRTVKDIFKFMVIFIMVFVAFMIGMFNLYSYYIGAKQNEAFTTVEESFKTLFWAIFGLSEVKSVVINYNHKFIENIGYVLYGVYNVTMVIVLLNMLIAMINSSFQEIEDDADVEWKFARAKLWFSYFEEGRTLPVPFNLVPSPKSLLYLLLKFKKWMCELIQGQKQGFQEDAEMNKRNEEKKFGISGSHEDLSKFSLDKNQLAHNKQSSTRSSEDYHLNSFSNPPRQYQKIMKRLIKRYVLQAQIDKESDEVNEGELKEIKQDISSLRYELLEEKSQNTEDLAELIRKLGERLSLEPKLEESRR

OC(C#CCCN1CCCCC1)(c1ccccc1)c1ccccc1 | 39.8 µM
Cc1ccc(N2C(=O)CSC2c2c(F)cccc2Cl)cc1 (stereo unspecified) | 17.8 µM
CCCc1cc(=S)n2c([nH]c3ccccc32)c1C#N | 50.1 µM
CN(C)CCN(C(=O)c1cccs1)c1nc2cc3c(cc2s1)OCCO3 | 39.8 µM
CCN(CC)CCC#CC(O)(c1ccccc1)c1ccccc1 | 14.1 µM
CC(C)NCC(O)Cn1c2c(c3ccccc31)CCc1c-2cnn1-c1ccccc1 (stereo unspecified) | 79.4 µM
CCN(CC)CCC#CC(O)(c1ccccc1)C1CCCCC1 (stereo unspecified) | 11.2 µM
Cc1nnsc1C(=O)N/N=C/c1ccc2ccccc2c1O | 8.91 µM

Which IC50 is reported for this compound? CN(c1ccccc1)P(=O)(N(C)c1ccccc1)N(C)c1ccccc1
44.7 µM

And then CC1CCN(CC(C)CNC(=O)c2cc(-c3ccccn3)nc3ccccc23)CC1 (stereo unspecified) , what is it?
44.7 µM

And then CC(C)(C)c1ccc(Cn2c(=N)n(CC(O)c3ccco3)c3ccccc32)cc1 (stereo unspecified) , what is it?
44.7 µM

###

biological target: Short transient receptor potential channel 6 (Mus musculus) (UniProt Q61143); assay: TRPC6 inhibitor potency, dose response, cell-based, mouse TRPC6, HEK293, membrane potential (AID 2696); settings: TRPC6-expressing HEK293 cells, membrane potential dye fluorescence, acetylcholine-stimulated
Result type: IC50

Example molecules with recorded IC50:
CCCCCOC(=O)c1ccc(NC(=O)c2ccco2)cc1 | 70.8 µM
CCN(CC)CCSc1nnc(Nc2ccccc2)n1-c1ccccc1 | 44.7 µM
COC(=O)c1ccc(NC(=O)N2CCCC(C(=O)c3ccccc3OC)C2)cc1 (stereo unspecified) | 79.4 µM
O=C(NNS(=O)(=O)c1ccc(Cl)cc1)C1CCN(Cc2ccccc2)CC1 | 35.5 µM
CCSc1ccc2cc(OC)ccc2[n+]1CC | 50.1 µM

Which IC50 is reported for this molecule? Cc1c(CCOC(=O)C23CC4CC(CC(C4)C2)C3)sc[n+]1Cc1ccccc1
39.8 µM
